Origin of measurements: patent US8618162B2

// reported IC50 for each item listed
- experimental_system: Ag hmg AChE (Anopheles gambiae)
- Construct: To prepare the Ag homogenate (Ag hmg) 10 Anopheles gambiae mosquitoes were combined; from tissue; host or cells: whole Anopheles gambiae mosquitoes, crude homogenate supernatant
- measurement_protocol: Ellman AChE inhibition assay, Anopheles gambiae homogenate (Ag hmg)
- Assay type: biochemical
- run_conditions: Ag WT hmg IC50, WT Anopheles gambiae homogenate, pH 7.8, 10 min preincubation
measurement_label: IC50 (µM)

CC(C)NC(=O)Oc1cccc(C(C)(C)C)c1 [Compound 1d, N-isopropyl-3-tert-butylphenylcarbamate]    538
C=C(C)COc1ccccc1OC(=O)NC [Compound 20b]    1.51
C=C(Br)COc1ccccc1OC(=O)NC [Compound 21b]    1.07
CNC(=O)Oc1ccccc1SCC1CCCCC1    17.5

* * *

// reported log10 IC50 for each item listed
- experimental_system: Ag ace-1S (Anopheles gambiae)
- Construct: encoding the entire wild type AgAChE protein (ace1, 737 amino acids); made in house; host or cells: Drosophila S2 cells (stably transfected, pMT/V5-His vector), clarified cell lysate
- Sequence (Q869C3 39-737): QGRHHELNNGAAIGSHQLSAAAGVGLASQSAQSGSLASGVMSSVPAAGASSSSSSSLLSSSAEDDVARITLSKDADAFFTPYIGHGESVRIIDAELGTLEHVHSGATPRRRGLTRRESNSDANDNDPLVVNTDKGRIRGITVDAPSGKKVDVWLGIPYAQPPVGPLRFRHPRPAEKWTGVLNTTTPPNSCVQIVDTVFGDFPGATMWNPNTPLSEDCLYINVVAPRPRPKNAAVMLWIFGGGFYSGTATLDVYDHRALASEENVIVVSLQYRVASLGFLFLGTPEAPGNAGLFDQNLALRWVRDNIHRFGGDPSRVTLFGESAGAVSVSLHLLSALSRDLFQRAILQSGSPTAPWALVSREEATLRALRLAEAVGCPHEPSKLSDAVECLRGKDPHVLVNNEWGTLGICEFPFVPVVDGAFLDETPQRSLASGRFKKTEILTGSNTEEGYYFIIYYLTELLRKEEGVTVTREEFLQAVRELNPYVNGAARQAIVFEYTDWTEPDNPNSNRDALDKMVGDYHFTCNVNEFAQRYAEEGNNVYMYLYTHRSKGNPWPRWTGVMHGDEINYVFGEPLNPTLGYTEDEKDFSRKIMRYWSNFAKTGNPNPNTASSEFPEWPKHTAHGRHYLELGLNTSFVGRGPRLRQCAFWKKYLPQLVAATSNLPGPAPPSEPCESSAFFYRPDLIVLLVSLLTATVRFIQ
- measurement_protocol: biochemical
measurement_label: log10 IC50 (log10 of the value in nM)

C=C(Br)CSc1ccccc1OC(=O)NC [Compound 15b]    2.24
CCC(CC)CSc1ccccc1OC(=O)NC    0.46
CNC(=O)Oc1ccccc1OC(C)C [Propoxur, reference compound]    2.33
C=C(Cl)CSc1ccccc1OC(=O)NC [Compound 14b]    2.42
CNC(=O)Oc1cccc(-c2ccccc2)c1    4.08
CNC(=O)O/N=C/C(C)(C)SC [Aldicarb, reference compound]    4.04
CNC(=O)Oc1cccc2ccccc12 [Carbaryl, reference compound]    2.71
C=C(C)CSc1ccccc1OC(=O)NC    2.22
CNC(=O)Oc1cccc(I)c1    3.26
CCC(C)CSc1ccccc1OC(=O)NC (stereo not shown)    1.43
CNC(=O)Oc1ccccc1SCC=C(C)C [Compound 18b]    2.61
CNC(=O)Oc1ccccc1SCC1CCCC1 [Compound 11b]    2.59
CCc1cccc(OC(=O)NC)c1    2.59
CNC(=O)Oc1ccccc1C(C)(C)C [Compound 23b, 2-tert-butylphenyl methylcarbamate]    4.71
CNC(=O)Oc1ccccc1SCc1ccccc1 [Compound 19b, 2-(benzylthio)phenyl-N-methylcarbamate]    3.58
C=CCSc1ccccc1OC(=O)NC [Compound 16b, 2-(allylthio)phenyl-N-methylcarbamate]    1.56
CNC(=O)Oc1cccc([Si](C)(C)C)c1    0.61
CNC(=O)Oc1cccc(Cl)c1    4.22
CCC(CC)COc1ccccc1OC(=O)NC    1.00
CC[Si](C)(C)c1cccc(OC(=O)NC)c1    0.34
CNC(=O)Oc1cccc(C(C)C)c1    1.08
CNC(=O)Oc1ccccc1SCC(C)(C)C    2.46
CNC(=O)Oc1ccccc1OCC(C)C [Compound 13b, 2-isobutoxyphenyl-N-methylcarbamate]    2.81
C=C(Br)COc1ccccc1OC(=O)NC [Compound 21b]    2.87
CNC(=O)Oc1cccc2c1OC(C)(C)O2 [Bendiocarb, reference compound]    2.15

* * *

// reported IC50 for each item listed
- experimental_system: Ag hmg AChE (Anopheles gambiae, UniProt Q869C3)
- Construct: To prepare the Ag homogenate (Ag hmg) 10 Anopheles gambiae mosquitoes were combined; from tissue; host or cells: whole Anopheles gambiae mosquitoes, crude homogenate supernatant
- measurement_protocol: Ellman AChE inhibition assay, Anopheles gambiae homogenate (Ag hmg)
- Assay type: biochemical
- run_conditions: Ag WT hmg IC50, WT Anopheles gambiae homogenate, pH 7.8, 10 min preincubation
measurement_label: IC50

C=C(C)CSc1ccccc1OC(=O)NCCCCCC [Compound 8d]    > 100000 nM
CNC(=O)Oc1ccccc1OCC1CCCCC1 [Compound 10b]    > 100000 nM
CNC(=O)Oc1ccccc1SCC1CCCC1 [Compound 11b]    1070 nM
CNC(=O)Oc1cccc([Si](C)(C)C)c1 [Compound 2a]    5.6 nM
CCC(CC)COc1ccccc1OC(=O)NC [Compound 2b]    69 nM
CNC(=O)Oc1ccccc1SCC(C)(C)C [Compound 7b]    732 nM
C=C(Cl)CSc1ccccc1OC(=O)NC [Compound 14b]    114 nM
CNC(=O)Oc1cccc(I)c1 [Compound 9a]    5170 nM
C=C(C)CSc1ccccc1OC(=O)N(C)C [Compound 8e]    5820 nM
CNC(=O)Oc1ccccc1SCC(C)C [Compound 6b, 2-(isobutylthio)phenyl-N-methylcarbamate]    109 nM
C/C=C/CSc1ccccc1OC(=O)NC [Compound 17b]    57 nM
CCc1cccc(OC(=O)NC)c1 [Compound 5a]    630 nM

* * *

- experimental_system: hAChE (Homo sapiens, UniProt P22303)
- Construct: purchased Sigma C1682
- Sequence (P22303 32-614): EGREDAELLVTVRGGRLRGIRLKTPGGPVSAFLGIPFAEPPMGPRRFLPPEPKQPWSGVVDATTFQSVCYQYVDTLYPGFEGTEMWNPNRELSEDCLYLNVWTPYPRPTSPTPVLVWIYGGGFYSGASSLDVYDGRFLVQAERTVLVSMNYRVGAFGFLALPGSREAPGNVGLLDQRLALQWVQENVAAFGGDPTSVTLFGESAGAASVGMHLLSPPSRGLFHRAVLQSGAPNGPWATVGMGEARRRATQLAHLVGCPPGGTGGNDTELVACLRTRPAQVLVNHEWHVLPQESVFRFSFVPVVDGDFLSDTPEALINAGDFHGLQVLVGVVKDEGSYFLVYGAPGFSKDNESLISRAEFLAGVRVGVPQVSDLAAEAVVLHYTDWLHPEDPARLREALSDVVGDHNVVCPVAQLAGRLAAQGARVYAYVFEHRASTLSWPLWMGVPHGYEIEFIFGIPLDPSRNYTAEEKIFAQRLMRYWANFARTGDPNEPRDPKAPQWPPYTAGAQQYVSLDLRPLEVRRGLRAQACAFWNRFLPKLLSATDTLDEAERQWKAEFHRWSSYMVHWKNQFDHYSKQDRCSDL
- measurement_protocol: Ellman AChE inhibition assay, recombinant hAChE
- Type: biochemical
measurement_label: IC50 (µM)

C=C(C)COc1ccccc1OC(=O)NC [Compound 20b]    68.7
CN(C)C(=O)Oc1cccc(C(C)(C)C)c1    4.04
C=C(C)CSc1ccccc1OC(=O)N(C)C    10.3
C=CCSc1ccccc1OC(=O)NC [Compound 16b, 2-(allylthio)phenyl-N-methylcarbamate]    1.58
CNC(=O)Oc1ccccc1OC(C)C [Propoxur, reference compound]    0.444
